Target: stromelysin (Homo sapiens, UniProt P08254)
Sequence (P08254 100-477): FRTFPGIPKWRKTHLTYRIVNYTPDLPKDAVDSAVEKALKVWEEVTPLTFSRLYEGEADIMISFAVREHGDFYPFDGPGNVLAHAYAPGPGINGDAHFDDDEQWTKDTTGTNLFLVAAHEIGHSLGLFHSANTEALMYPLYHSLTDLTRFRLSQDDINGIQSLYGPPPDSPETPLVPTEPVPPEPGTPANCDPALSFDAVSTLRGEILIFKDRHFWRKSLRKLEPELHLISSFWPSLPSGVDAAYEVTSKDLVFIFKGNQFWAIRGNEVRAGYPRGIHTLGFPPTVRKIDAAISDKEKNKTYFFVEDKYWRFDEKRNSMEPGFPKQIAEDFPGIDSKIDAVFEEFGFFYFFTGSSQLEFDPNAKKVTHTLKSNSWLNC
property label: Ki (nM)
Please give a number only; it is taken to be in nM.

Challenge: Value lookup for Ki; key = CNC(=O)[C@H](Cc1c[nH]c2ccccc12)NC(=O)[C@@H](CC(=O)NO)CC(C)C [GM6001]
Response given: 20
